Recorded pIC50 for the following molecules
# target of assay: BRD4 (BD1) (Homo sapiens)
# Construct: with relatively long constructs also being possible, preferably amino acids 44-168
# experimental protocol: Binding assay BRD4/acetylated peptide H4 (TR-FRET protein-protein interaction assay)
# pIC50 = -log10(concentration in molar units)

Below: 3 molecules and their reported pIC50.
Q: For the record "CNC(=O)N1N=C(c2ccc(-c3c(C)noc3C)cc2)c2cc(N3CCOCC3)ccc2C[C@@H]1C" , what value of pIC50 is listed for BRD4 (BD1) (Homo sapiens)?
Ans: 7.40

Q: Request: CNC(=O)N1N=C(c2ccc(-c3ccncc3F)cc2)c2cc(OC)c(OC)cc2CC1C (racemic)
Ans: 7.22

Q: // repeat for CNC(=O)N1N=C(c2ccc(N3CCN(C)CC3)cc2)c2cc(OC)c(OC)cc2CC1C (racemic) and report
Ans: 7.10

Continuing:
Q: Observed pIC50 on BRD4 (BD1) (Homo sapiens) for CNC(=O)N1N=C(c2ccc(F)c(-c3c(C)nn(C)c3C)c2)c2cc(OC)c(OC)cc2CC1C (racemic) , please.
Ans: 6.74

Q: "CNC(=O)N1N=C(c2ccc(N3CCN(C)C(=O)C3)cc2)c2cc(OC)c(OC)cc2C[C@@H]1C" ?
Ans: 7.40

Q: Do the same for CNC(=O)N1N=C(c2ccc(N3CCN(Cc4ccccc4)CC3=O)cc2)c2cc(OC)c(OC)cc2CC1C (racemic) please
Ans: 6.59

Q: Now consider CNC(=O)N1N=C(c2ccc(Cl)cc2)c2cc(N3CCN(C)CC3)ccc2CC1C (racemic) and answer again.
Ans: 6.27
